target: Fuc(a1-2)[GalNAc(a1-3)]Gal(b1-4)GlcNAc(b1-2)Man(a1-3)[Fuc(a1-2)[GalNAc(a1-3)]Gal(b1-4)GlcNAc(b1-2)Man(a1-6)]Man(b1-4)GlcNAc(b1-4)[Fuc(a1-6)]GlcNAc; assay: glycan array binding signal (z-score within array); higher = stronger binding; conditions: glycan notation: IUPAC condensed, linker removed
This is one part of a sample in which the strongest signals are shown more often than they occur.
reported endpoint: glycan array binding signal (z-score)
Give bare numbers.

binder: ECL (Erythrina cristagalli), Q6YD91 (protein) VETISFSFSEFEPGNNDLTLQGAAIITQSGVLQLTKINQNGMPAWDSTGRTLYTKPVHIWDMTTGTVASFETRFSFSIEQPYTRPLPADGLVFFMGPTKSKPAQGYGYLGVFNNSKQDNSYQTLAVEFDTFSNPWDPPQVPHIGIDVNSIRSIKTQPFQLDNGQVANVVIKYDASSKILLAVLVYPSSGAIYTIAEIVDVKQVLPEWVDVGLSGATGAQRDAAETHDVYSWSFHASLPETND
glycan array binding signal (z-score): -0.274

Now take the following binder into account.
Give the value of glycan array binding signal (z-score) reported for the following: AT3G09350(27) (Arabidopsis thaliana), Q84J81 (protein) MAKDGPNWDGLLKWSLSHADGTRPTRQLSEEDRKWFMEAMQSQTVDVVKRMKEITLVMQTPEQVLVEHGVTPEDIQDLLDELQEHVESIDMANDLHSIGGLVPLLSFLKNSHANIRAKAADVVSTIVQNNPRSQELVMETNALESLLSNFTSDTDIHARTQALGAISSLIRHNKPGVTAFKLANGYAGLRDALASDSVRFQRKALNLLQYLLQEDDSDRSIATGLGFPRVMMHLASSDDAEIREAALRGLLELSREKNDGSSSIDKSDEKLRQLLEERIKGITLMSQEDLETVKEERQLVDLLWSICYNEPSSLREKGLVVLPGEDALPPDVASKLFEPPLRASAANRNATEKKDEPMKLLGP 0.007
